tgt: UniProt:P30560
Sequence (P30560 whole entry): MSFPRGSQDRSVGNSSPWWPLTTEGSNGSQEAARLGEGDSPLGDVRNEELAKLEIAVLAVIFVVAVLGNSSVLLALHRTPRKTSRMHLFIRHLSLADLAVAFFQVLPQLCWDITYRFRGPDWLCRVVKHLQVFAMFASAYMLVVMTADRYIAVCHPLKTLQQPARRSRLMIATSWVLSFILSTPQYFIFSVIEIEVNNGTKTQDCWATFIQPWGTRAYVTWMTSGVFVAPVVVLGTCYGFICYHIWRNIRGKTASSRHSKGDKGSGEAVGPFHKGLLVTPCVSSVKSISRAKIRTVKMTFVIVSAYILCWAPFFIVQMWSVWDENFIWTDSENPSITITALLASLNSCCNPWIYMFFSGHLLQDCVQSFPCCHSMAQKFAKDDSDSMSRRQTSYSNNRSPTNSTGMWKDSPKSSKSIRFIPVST
experimental details: Displacement of [3H]AVP from AVP-V1a receptor binding site in rat liver
What IC50 was measured for each of the following?
Unit µM implied. Number only.

The value of IC50 measured for the compound CC(=O)NC1CCCN(C(=O)c2ccc(NC(=O)c3ccccc3C)cc2)c2ccccc21 (centres undefined) turned out to be 3.2

The value of IC50 measured for the compound CN(C)C1CCCN(C(=O)c2ccc(NC(=O)c3ccccc3Cl)cc2)c2ccccc21 (centres undefined) turned out to be 3
